Assay: Plasma protein binding in human assessed as unbound fraction
Type: ADME, cell-free
Quantity name: fraction unbound
Answers are plain numbers.

// sample "C[C@H]1CCCN1C(=O)c1nc(C(=O)NCC(C)(C)O)sc1-c1ccc(C(O)(C(F)(F)F)C(F)(F)F)c(Cl)c1Cl" , its fraction unbound was 0.008

* * *

Test: Metabolic stability in mouse liver microsomes assessed as half life
Format: ADME, Microsome
Quantity name: half-life

// sample "C[C@H]1CCCN1C(=O)c1nc(C(=O)NCC(C)(C)O)sc1-c1ccc(C(O)(C(F)(F)F)C(F)(F)F)c(Cl)c1Cl" , its half-life was > 3 h

* * *

Target: PXR (Homo sapiens, UniProt O75469)
Sequence (O75469 whole entry): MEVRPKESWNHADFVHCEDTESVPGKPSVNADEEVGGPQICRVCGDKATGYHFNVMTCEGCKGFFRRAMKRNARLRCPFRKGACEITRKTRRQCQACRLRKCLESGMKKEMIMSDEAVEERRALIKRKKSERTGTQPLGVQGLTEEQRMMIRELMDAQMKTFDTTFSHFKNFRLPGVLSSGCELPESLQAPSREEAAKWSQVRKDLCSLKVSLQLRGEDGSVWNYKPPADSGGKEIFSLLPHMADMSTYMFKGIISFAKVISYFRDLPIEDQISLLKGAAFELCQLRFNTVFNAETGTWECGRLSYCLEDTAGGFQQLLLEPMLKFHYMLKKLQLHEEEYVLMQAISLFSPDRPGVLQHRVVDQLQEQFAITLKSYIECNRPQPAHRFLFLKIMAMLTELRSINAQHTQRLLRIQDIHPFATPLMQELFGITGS
Test: Activation of human PXR at 10 uM relative to control
Format: toxicity
Conditions: read-out: Activity
Threshold check on activity at 10 µM: at or above 30% gives t, strictly below gives f.

[Q] Form field: activity at 10 µM at least 30%? Entry: "Cc1cc(C(O)(C(F)(F)F)C(F)(F)F)ccc1-c1sc(C(=O)NCC(C)(C)O)nc1C(=O)N1CCCC[C@@H]1C"
[A] f

[Q] Form field: activity at 10 µM at least 30%? Entry: "C[C@H]1CCCN1C(=O)c1nc(C(=O)NCC(C)(C)O)sc1-c1ccc(C(O)(C(F)(F)F)C(F)(F)F)c(Cl)c1Cl"
[A] t

[Q] Form field: activity at 10 µM at least 30%? Entry: "C[C@H]1CCCN1C(=O)c1nc(C(=O)NCC(C)(C)O)sc1-c1ccc(C(O)(C(F)(F)F)C(F)(F)F)cc1Cl"
[A] f

[Q] Form field: activity at 10 µM at least 30%? Entry: "C[C@H]1CCCN1C(=O)c1nc(C(=O)NCC(C)(C)O)sc1-c1ccc(C(O)(C(F)(F)F)C(F)(F)F)cc1C(F)F"
[A] t

[Q] Form field: activity at 10 µM at least 30%? Entry: "C[C@H]1CCCCN1C(=O)c1nc(C(=O)NCC(C)(C)O)sc1-c1ccc(C(O)(C(F)(F)F)C(F)(F)F)cc1Cl"
[A] f

[Q] Form field: activity at 10 µM at least 30%? Entry: "Cc1cc(C(O)(C(F)(F)F)C(F)(F)F)ccc1-c1sc(C(=O)NCC(C)(C)O)nc1C(=O)N1CCC[C@@H]1C"
[A] t

Others:
[Q] Form field: activity at 10 µM at least 30%? Entry: "C[C@H]1CCCCN1C(=O)c1nc(C(=O)NCC(C)(C)O)sc1-c1ccc(C(O)(C(F)(F)F)C(F)(F)F)cc1C(F)F"
[A] t

* * *

Assay: Oral bioavailability in male overnight fasted Beagle dog at 5 mg/kg measured 24 hrs post dose by LC-MS/MS analysis
Assay type: ADME, organism-based, Canis lupus familiaris
Conditions: in vivo
Quantity name: bioavailability (%)
One number for each entry, in %.

// sample "C[C@H]1CCCN1C(=O)c1nc(C(=O)NCC(C)(C)O)sc1-c1ccc(C(O)(C(F)(F)F)C(F)(F)F)c(Cl)c1Cl" , its bioavailability was 100

* * *

Assay: Cmax in male Sprague-Dawley rat at 1 mg/kg, iv or 5 mg/kg, po measured 24 hrs post dose by LC-MS/MS analysis
Type: ADME, organism-based
Settings: in vivo
Quantity name: Cmax (nM)
One number for each entry, in nM.

// sample "CCN(CC)C(=O)c1nc(C(=O)N2C[C@H](O)C[C@H](O)C2)sc1-c1ccc(C(O)(C(F)(F)F)C(F)(F)F)c(Cl)c1Cl" , its Cmax was 100

* * *

Test: Aqueous solubility of the compound at pH 7
Assay type: physicochemical
Conditions: aqueous solution
Quantity name: solubility

// sample "C[C@H]1C[C@@H](F)CCN1C(=O)c1nc(C(=O)NCC(C)(C)O)sc1-c1ccc(C(O)(C(F)(F)F)C(F)(F)F)c(Cl)c1Cl" , its solubility was < 4 µM

// sample "C[C@H]1CCCN1C(=O)c1nc(C(=O)NCC(C)(C)O)sc1-c1ccc(C(O)(C(F)(F)F)C(F)(F)F)c(Cl)c1Cl" , its solubility was < 4 µM

Here is the next item to consider.
// sample "Cc1cc(C(O)(C(F)(F)F)C(F)(F)F)ccc1-c1sc(C(=O)NCC(C)(C)O)nc1C(=O)N1CCC[C@@H]1C" , its solubility was 86 µM
